# inhibition per entry
- measured target: Tyrosine-protein phosphatase non-receptor type 1 (Homo sapiens)
- procedure details: Inhibition of GST-tagged recombinant human PTP1B at 100 uM

molecule	censor symbol	inhibition [%]
O=C(O)CC(CC(=O)c1ccccc1)c1ccc(-n2c3ccccc3c3ccccc32)cc1 (stereo not drawn)	=	106
O=C(N[C@H](Cc1ccccc1)C(=O)O)c1ccc(CN(c2ccccc2)c2ccccc2)cc1	=	83.8
O=C(O)[C@@H](Cc1ccccc1)Oc1ccc(C(=O)N(Cc2ccc3c(c2)OCO3)c2ccc(F)cc2)cc1	<	40
COc1ccc(N(Cc2ccc(O[C@H](Cc3ccccc3)C(=O)O)cc2)C(=O)c2ccc(C(=O)O)cc2)cc1	<	40
O=C(O)[C@@H](Cc1ccccc1)Oc1ccc(-n2c3ccccc3c3ccccc32)cc1	=	98.4
O=C(N[C@H](Cc1ccccc1)C(=O)O)c1ccc(Cn2c3ccccc3c3ccccc32)cc1	=	51.8
COc1ccc(N(Cc2ccc3c(c2)OCO3)C(=O)c2ccc(C(CC(=O)O)CC(=O)c3ccccc3)cc2)cc1 (stereo not drawn)	<	40
O=C(O)CN(Cc1ccccc1)c1ccc(CN(Cc2ccc3c(c2)OCO3)c2ccc(F)cc2)cc1	=	44.3
O=C(O)CC(CC(=O)c1ccccc1)c1ccc(OC(c2ccccc2)c2ccccc2)cc1 (stereo not drawn)	=	61
COc1ccc(N(Cc2ccc(C(=O)N[C@H](Cc3ccccc3)C(=O)O)cc2)Cc2ccc3c(c2)OCO3)cc1	=	100
O=C(N[C@H](Cc1ccccc1)C(=O)O)c1ccc(CN(Cc2ccccc2)c2ccccc2)cc1	=	113
O=C(O)CN(C(=O)Cc1ccccc1)c1ccc(CN(Cc2ccc3c(c2)OCO3)c2ccc(F)cc2)cc1	=	96.4
O=C(N[C@H](Cc1ccccc1)C(=O)O)c1ccc(C(=O)N(Cc2ccccc2)Cc2ccccc2)cc1	<	40
COc1ccc(N(Cc2ccc(O[C@H](Cc3ccccc3)C(=O)O)cc2)C(=O)c2ccc3c(c2)OCO3)cc1	<	40
O=C(O)CC(CC(=O)c1ccccc1)c1ccc(Cn2c3ccccc3c3ccccc32)cc1 (stereo not drawn)	=	98
O=C(O)[C@@H](Cc1ccccc1)Oc1ccc(CN(Cc2ccc3c(c2)OCO3)c2ccc(F)cc2)cc1	=	112
O=C(O)CN(Cc1ccccc1)Cc1ccc(-n2c3ccccc3c3ccccc32)cc1	=	67.3
O=C(O)[C@@H](Cc1ccccc1)Oc1c(Br)cc(-c2c3ccccc3c(Br)c3oc4ccccc4c23)cc1Br	=	100
